Please provide measured inhibition for the entries that follow.
- System: Yersinia pseudotuberculosis
- method_notes: Effect on T3S in Yersinia pseudotuberculosis 3 pIB29 assessed as inhibition of light emission at 100 uM by luciferase reporter gene assay
One number for each entry, in %.

These solved cases illustrate the format of a correct answer.
smiles_string=O=C(Nc1ccc(F)cc1)c1cc(I)cc(I)c1O result_unit=% observed_value=100
smiles_string=O=C(Nc1ccc(F)cc1)c1c(O)c(Cl)cc(Cl)c1Cl result_unit=% observed_value=45
smiles_string=CC(=O)Oc1c(Cl)cc(Cl)c(Cl)c1C(=O)Nc1ccc(F)cc1 result_unit=% observed_value=54
smiles_string=CC(=O)Oc1ccc(Cl)cc1C(=O)Nc1ccc(Cl)c(C)c1 result_unit=% observed_value=100
smiles_string=O=C(Nc1ccc(SC(F)(F)F)cc1)c1cc(I)cc(I)c1O result_unit=% observed_value=100

For every item in the list below, what is its measured inhibition?
1. Cc1cc(C)cc(NC(=O)c2c(O)c(Cl)cc(Cl)c2Cl)c1
2. CC(=O)Oc1ccccc1C(=O)Nc1ccc(Cl)cc1
3. O=C(Nc1ccc(SC(F)(F)F)cc1)c1cc(I)ccc1O
4. Cc1cc(NC(=O)c2cc(Cl)ccc2O)ccc1Cl

Result string:
1: 52; 2: 99; 3: 51; 4: 75
